Kindly state EC50 for each of the entries shown.
# TARGET SYSTEM: T1, full-length His-tagged IL-17F protein (ab167911, Abcam) (human, UniProt Q96PD4 31-163)
# T1 construct: Bought protein, called 'full-length'; also called human IL-17F protein; recombinant human IL-17F protein; not shown: His tag of the bought protein
# T1 chain: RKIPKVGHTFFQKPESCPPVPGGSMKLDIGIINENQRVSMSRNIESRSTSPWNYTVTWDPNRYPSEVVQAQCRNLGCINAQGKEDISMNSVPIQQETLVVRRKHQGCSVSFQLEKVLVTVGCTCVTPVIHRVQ
# METHOD NOTES: sandwich ELISA: biotinylated ligand on NeutrAvidin plate, His-tagged IL-17F titrated, anti-His-AP detection
Bridge positions count the residues as written; N and C are the ends. Square brackets hold non-standard residues; d marks the D form. Primed or numbered codes have the meaning given here. Lys(N3) = [N-]=[N+]=NCCCC[C@H](N)C(=O)O; PEG3′ = PEGylated amino acid linker; Biotin′ = not defined here; Pra = C#CC[C@H](N)C(=O)O
Your answer is read as nM, so omit the unit and give the number.

Task item: Look up EC50: [Pra]RRATS[Lys(N3)]-{PEG3′-Biotin′} (triazole N-C, also called LF1; PEG3-biotin-modified Cy(RRATS)) [Cy(RRATS)(SEQ ID NO:9)-PEG3-biotin]
Reply: 66

Task item: Next binder up: RSYNK (not fully specified; cyclised by a triazole between flanking N-terminal Pra (L-propargylglycine) and C-terminal Az4 (L-azidolysine); Biotin-PEG3 label, also called LF2; PEG3-biotin-modified Cy(RSYNK)) [Biotin-PEG3-Cy(RSYNK) (SEQ ID NO:28)]
Reply: 15

Task item: Check KKGWP (not fully specified; cyclised by a triazole between flanking N-terminal Pra (L-propargylglycine) and C-terminal Az4 (L-azidolysine); N-terminal Biotin-PEG3 label, also called PEG3-biotin-modified Cy(KKGWP)) [Biotin-PEG3-Cy(KKGWP) (SEQ ID NO:23)] too.
Reply: 24

Task item: Queued: [Pra]RRAQS[Lys(N3)]-{PEG3′-Biotin′} (triazole N-C, also called PEG3-biotin-modified Cy(RRAQS)) [Cy(RRAQS)(SEQ ID NO:10)-PEG3-biotin]
Reply: 52
